- Target Or System: CDK2/Cyclin E (Homo sapiens)
- Assay Protocol: CDK2/Cyclin E kinase flashplate assay (33P incorporation into biotinylated Rb peptide)
- Experimental Setup: CDK2/Cyclin E 20 nM, ATP 1 μM, Rb peptide 10 μM, 30 minute at 30° C.
pIC50: −log10 of the molar value.
Metric: pIC50

a = COC(=O)c1ccc2nc(-c3cc(-c4ccncc4)n[nH]c3=O)[nH]c2c1
b = O=c1[nH]nc(-c2ccncc2)cc1-c1nc2ccc(Cl)cc2[nH]1
c = O=c1[nH]nc(-c2ccncc2)cc1-c1nc2ccc(C(F)(F)F)cc2[nH]1
(Q) Parameters: sort_field (pIC50), sort_dir (desc). API: response body holds the labels in the requested order.
(A) b, a, c
